Assay remarks: Solubility of DEHiBA in an aqueous phase by total organic carbon (TOC) measurement, test in mixers-decanters
Format: physicochemical
Conditions: aqueous phase after decantation; under the conditions of the test; includes diluent (TPH) and carried-away organic phase; read-out: DEHiBA soluble in an aqueous phase
Metric name: solubility

So, CCCCC(CC)CN(CC(CC)CCCC)C(=O)C(C)C (stereo not shown) [DEHiBA, N,N-di-(2-ethylhexyl)isobutyramide] ? Its solubility was 40 to 60 µg/mL
